Experimental System: PXR (nuclear receptor subfamily 1 group I member 2) (Homo sapiens)
Sequence (O75469 whole entry): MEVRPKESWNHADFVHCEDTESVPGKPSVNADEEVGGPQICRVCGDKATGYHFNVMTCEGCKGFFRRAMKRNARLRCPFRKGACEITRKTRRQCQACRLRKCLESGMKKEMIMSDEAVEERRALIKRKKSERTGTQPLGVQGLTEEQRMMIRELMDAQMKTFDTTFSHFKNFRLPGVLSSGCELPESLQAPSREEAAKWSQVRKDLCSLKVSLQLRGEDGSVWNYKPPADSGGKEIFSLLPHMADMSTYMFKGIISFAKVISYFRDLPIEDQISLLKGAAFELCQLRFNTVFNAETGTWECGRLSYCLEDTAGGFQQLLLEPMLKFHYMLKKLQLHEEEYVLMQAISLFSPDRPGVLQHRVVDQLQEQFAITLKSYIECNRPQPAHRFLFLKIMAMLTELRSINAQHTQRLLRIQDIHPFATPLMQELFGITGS
Experiment Description: PXR Indigo Bioscience nuclear receptor screen
Conditions: compound concentration 3 uM
Measurement Name: inhibition at 3 µM

{"Chemical String": "COc1nc2ccc([C@@](O)(c3ccccc3)C3CCN(C(C)=O)CC3)cc2c(Cl)c1Cc1ccc(-n2cccn2)cc1", "Result": "1.01% (not active)"}

###

Experimental System: Sigma non-opioid intracellular receptor 1 (Homo sapiens)
Sequence (Q99720 whole entry): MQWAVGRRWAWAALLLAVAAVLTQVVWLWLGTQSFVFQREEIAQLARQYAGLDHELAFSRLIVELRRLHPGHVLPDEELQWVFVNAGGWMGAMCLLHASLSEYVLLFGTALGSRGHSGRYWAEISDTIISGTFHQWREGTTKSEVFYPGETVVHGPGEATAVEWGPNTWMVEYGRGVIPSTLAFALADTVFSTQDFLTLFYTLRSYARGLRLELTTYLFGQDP
Experiment Description: GPCRScan assay: inhibition of Sigma 1
Design: radioligand conc. used [nm] 4.0 – 5.0, parental cells HEKT
Conditions: read-out: Ki
pKi: −log10 of the molar value.
Measurement Name: pKi

{"Molecule": "COc1nc2ccc([C@@](O)(c3ccccc3)C3CCN(C(C)=O)CC3)cc2c(Cl)c1Cc1ccc(-n2cccn2)cc1 [JNJ-54119936]", "Measurement Name": "pKi", "Numeric Result": 5.51}

###

Experimental System: Sigma intracellular receptor 2 (Homo sapiens)
Sequence (Q5BJF2 whole entry): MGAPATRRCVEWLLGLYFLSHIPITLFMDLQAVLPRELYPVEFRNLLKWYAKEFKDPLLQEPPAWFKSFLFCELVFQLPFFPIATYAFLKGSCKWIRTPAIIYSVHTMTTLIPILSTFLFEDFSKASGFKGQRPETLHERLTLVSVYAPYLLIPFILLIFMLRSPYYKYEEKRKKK
Experiment Description: GPCRScan assay: inhibition of Sigma 2
Design: radioligand conc. used [nm] 5.0, parental cells HEKT
Conditions: read-out: Ki

{"Chemical String": "COc1nc2ccc([C@@](O)(c3ccccc3)C3CCN(C(C)=O)CC3)cc2c(Cl)c1Cc1ccc(-n2cccn2)cc1", "Experimental System": "Sigma intracellular receptor 2 (Homo sapiens)", "Ki [nM]": 637}

###

Target chain: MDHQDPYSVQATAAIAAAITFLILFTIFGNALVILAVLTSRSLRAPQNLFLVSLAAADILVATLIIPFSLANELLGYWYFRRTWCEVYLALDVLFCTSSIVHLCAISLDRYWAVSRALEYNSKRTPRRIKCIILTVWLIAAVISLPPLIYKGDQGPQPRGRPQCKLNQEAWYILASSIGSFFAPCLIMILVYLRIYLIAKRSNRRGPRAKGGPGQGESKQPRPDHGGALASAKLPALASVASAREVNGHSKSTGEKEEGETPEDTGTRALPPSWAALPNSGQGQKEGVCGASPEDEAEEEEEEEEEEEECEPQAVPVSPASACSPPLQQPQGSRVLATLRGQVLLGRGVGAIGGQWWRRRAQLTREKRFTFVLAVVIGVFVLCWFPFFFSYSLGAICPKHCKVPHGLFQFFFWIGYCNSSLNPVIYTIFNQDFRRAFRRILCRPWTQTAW
pKi: −log10 of the molar value.

{"Chemical String": "COc1nc2ccc([C@@](O)(c3ccccc3)C3CCN(C(C)=O)CC3)cc2c(Cl)c1Cc1ccc(-n2cccn2)cc1", "pKi": 5.04}

###

Experimental System: Peroxisome proliferator-activated receptor alpha (Homo sapiens)
Sequence (Q07869 whole entry): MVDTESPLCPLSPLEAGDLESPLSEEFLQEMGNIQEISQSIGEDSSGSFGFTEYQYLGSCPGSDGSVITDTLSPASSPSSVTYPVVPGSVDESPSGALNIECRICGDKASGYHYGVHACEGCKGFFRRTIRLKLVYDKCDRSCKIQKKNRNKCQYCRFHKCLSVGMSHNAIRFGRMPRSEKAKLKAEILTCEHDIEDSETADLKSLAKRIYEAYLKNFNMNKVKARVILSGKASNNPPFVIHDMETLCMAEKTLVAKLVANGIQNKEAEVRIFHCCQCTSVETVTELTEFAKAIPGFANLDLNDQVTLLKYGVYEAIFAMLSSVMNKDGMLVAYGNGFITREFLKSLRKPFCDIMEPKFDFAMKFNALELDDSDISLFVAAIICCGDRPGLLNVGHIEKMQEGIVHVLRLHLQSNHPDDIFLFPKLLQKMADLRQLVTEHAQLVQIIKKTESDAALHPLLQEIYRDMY
Experiment Description: PPARalpha In-house nuclear receptor screen
pIC50: −log10 of the molar value.
Measurement Name: pIC50

{"Chemical String": "COc1nc2ccc([C@@](O)(c3ccccc3)C3CCN(C(C)=O)CC3)cc2c(Cl)c1Cc1ccc(-n2cccn2)cc1", "Measurement Name": "pIC50", "Result": "~5.30"}

###

Experimental System: CAR (nuclear receptor subfamily 1 group I member 3) (Homo sapiens, UniProt Q14994)
Sequence (Q14994 whole entry): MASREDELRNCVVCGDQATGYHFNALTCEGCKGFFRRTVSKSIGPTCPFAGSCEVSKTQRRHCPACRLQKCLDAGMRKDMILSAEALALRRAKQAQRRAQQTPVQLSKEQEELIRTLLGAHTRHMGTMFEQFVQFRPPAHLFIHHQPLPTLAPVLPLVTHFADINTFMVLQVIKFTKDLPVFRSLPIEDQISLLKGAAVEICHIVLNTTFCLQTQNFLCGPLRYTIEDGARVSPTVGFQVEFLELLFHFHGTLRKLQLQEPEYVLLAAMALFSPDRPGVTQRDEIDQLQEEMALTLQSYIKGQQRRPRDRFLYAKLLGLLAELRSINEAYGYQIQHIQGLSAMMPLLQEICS
Experiment Description: CAR Indigo Bioscience nuclear receptor screen
Conditions: compound concentration 3 uM
Measurement Name: inhibition at 3 µM

{"Chemical String": "COc1nc2ccc([C@@](O)(c3ccccc3)C3CCN(C(C)=O)CC3)cc2c(Cl)c1Cc1ccc(-n2cccn2)cc1", "Experimental System": "CAR (nuclear receptor subfamily 1 group I member 3) (Homo sapiens, UniProt Q14994)", "Result": "2.37% (not active)"}

###

Experimental System: PXR (nuclear receptor subfamily 1 group I member 2) (Homo sapiens, UniProt O75469)
Sequence (O75469 whole entry): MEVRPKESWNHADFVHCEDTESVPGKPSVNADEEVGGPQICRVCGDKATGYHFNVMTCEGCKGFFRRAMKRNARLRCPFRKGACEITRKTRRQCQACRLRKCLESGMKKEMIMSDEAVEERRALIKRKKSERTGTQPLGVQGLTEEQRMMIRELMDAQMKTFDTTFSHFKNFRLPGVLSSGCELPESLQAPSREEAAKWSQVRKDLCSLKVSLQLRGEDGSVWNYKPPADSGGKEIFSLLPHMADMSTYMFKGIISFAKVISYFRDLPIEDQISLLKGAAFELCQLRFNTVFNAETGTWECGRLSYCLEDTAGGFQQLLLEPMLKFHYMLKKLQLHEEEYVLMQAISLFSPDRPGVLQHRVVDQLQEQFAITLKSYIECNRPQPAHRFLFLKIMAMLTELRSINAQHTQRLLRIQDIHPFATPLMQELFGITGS
Experiment Description: PXR Indigo Bioscience nuclear receptor screen
Conditions: compound concentration 1 uM

{"Chemical String": "COc1nc2ccc([C@@](O)(c3ccccc3)C3CCN(C(C)=O)CC3)cc2c(Cl)c1Cc1ccc(-n2cccn2)cc1", "Experimental System": "PXR (nuclear receptor subfamily 1 group I member 2) (Homo sapiens, UniProt O75469)", "inhibition at 1 µM": "-26.4% (not active)"}

These entries and their values trace back to ChEMBL document CHEMBL4800728.
